Biological target: 3-ketoacyl-CoA synthase 1 (Arabidopsis thaliana) (UniProt Q9MAM3)
Sequence (Q9MAM3 whole entry): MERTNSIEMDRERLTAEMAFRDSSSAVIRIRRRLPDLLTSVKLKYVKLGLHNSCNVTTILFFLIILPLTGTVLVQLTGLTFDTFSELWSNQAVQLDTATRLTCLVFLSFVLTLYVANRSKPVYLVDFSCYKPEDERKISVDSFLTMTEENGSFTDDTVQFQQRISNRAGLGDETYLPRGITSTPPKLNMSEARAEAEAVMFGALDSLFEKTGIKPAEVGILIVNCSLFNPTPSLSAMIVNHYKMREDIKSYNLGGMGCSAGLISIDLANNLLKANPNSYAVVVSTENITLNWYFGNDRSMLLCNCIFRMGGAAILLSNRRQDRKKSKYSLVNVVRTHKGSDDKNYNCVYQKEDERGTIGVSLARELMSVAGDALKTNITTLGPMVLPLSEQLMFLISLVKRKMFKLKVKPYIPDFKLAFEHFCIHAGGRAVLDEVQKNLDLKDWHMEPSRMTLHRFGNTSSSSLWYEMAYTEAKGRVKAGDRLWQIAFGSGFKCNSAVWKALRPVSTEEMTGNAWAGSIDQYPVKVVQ
Assay: Inhibition of Arbidopsis thaliana C-terminal His-tagged KCS1 expressed in Saccharomyces cerevisiae INVSc1 at 100 uM after 18 to 20 hr by GC/MS analysis
The source made the active and inactive calls. The rule behind the calls is not given here.
A correct response names exactly one class from yes (1) = active, no (0) = inactive

Write down the call the test reported for this compound. Item: CC(C)N(C(=O)SCC(Cl)=C(Cl)Cl)C(C)C [TRIALLATE]
no (0)

For this compound, state the assay outcome: CN(C)C(=O)C(c1ccccc1)c1ccccc1 [DIPHENAMIDE]
no (0)

Dear colleague, could you share the recorded outcome for CCN(CC)C(=O)n1cnc(S(=O)(=O)c2c(C)cc(C)cc2C)n1 [CAFENSTROLE] when you have a moment?
yes (1)

Test call, this compound: CCOC1Oc2ccc(OS(C)(=O)=O)cc2C1(C)C (centres undefined) [ETHOFUMESATE]
no (0)

Give the logged outcome of this assay for the following compound: CCc1cccc(CC)c1N(COC)C(=O)CCl [ALACHLOR]
yes (1)

Hey, what did the test say about CC(C)N(C(=O)COc1nnc(C(F)(F)F)s1)c1ccc(F)cc1 [FLUFENACET] ?
yes (1)

Check the results log: what was the call for CCN(CC)C(=O)C(C)Oc1cccc2ccccc12 (centres undefined) [NAPROPAMIDE] ?
no (0)

For this compound, state the assay outcome: CCS(=O)(=O)Oc1ccc2c(c1)C(C)(C)CO2 [BENFURESATE]
no (0)

Lab log entry: CCN(C(=O)n1nnn(-c2ccccc2Cl)c1=O)C1CCCCC1 [FENTRAZAMIDE] — outcome as called in the assay?
yes (1)
